Values were extracted from the supplement of paper PMC7877785.

Experiment: self-splicing fitness, log relative to wild type (ln ratio); higher = more splicing; Tetrahymena group I intron in knt gene, E. coli kanamycin selection, DiMSum; sequences stand for … in CUCUCU…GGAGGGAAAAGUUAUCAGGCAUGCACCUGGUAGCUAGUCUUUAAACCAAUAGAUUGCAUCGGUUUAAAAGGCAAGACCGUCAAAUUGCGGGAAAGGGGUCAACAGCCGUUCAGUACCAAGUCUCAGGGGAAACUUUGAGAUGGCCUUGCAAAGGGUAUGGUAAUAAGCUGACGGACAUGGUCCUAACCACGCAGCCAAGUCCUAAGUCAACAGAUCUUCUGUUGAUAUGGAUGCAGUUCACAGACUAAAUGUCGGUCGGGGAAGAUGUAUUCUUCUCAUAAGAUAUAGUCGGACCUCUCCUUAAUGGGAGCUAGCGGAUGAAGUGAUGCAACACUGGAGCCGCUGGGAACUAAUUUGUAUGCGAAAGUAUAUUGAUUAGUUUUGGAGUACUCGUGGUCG;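 note: selection with 25 µg/mL kanamycin versus none on LB agar overnight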
Details: 30 °C
Note to self: values exactly at -2 are MET. So self-splicing fitness (ln) at or above -2 is MET, below is NOT MET.

Q: Tell me whether self-splicing fitness (ln) is at least -2 here: `GGCAAGCAAUAUUACGAUCA`
A: MET

Q: Moving on to the next sequence: `CCGAAGCAAUAUUACGGCAU`
A: NOT MET

Q: Moving on to the next sequence: `CAGUAGCAAUAUUACGAAGU`
A: MET

Q: Moving on to the next sequence: `UAGUAGCAAUAUUACGGUCG`
A: MET

Q: Moving on to the next sequence: `GUCGAGCAAUAUUACGAUGC`
A: MET

Q: Moving on to the next sequence: `CACUAGCAAUAUUACGGGGU`
A: NOT MET

Q: Moving on to the next sequence: `CGAUAGCAAUAUUACGCCAG`
A: MET

Q: Moving on to the next sequence: `UACGAGCAAUAUUACGUAGC`
A: NOT MET

Q: Moving on to the next sequence: `UUCCAGCAAUAUUACGAGGC`
A: NOT MET

Q: Moving on to the next sequence: `UUAUAGCAAUAUUACGUGUU`
A: NOT MET

Q: Moving on to the next sequence: `GAAAAGCAAUAUUACGAGAG`
A: NOT MET

Q: Moving on to the next sequence: `CCAAAGCAAUAUUACGGCCA`
A: NOT MET

Q: Moving on to the next sequence: `CCCCAGCAAUAUUACGGCGU`
A: NOT MET

Q: Moving on to the next sequence: `CGCGAGCAAUAUUACGGUAG`
A: MET

Q: Moving on to the next sequence: `GUCAAGCAAUAUUACGUCGU`
A: MET

Q: Moving on to the next sequence: `CGACAGCAAUAUUACGAUUC`
A: NOT MET

Q: Moving on to the next sequence: `GGUCAGCAAUAUUACGCUUA`
A: MET

Q: Moving on to the next sequence: `CACCAGCAAUAUUACGGGGA`
A: MET

Q: Moving on to the next sequence: `GGUAAGCAAUAUUACGAAUG`
A: NOT MET

Q: Moving on to the next sequence: `CGUAAGCAAUAUUACGCCUC`
A: NOT MET

Q: Moving on to the next sequence: `UACAAGCAAUAUUACGCUGG`
A: NOT MET
